biological target: T1, HLA-A*02:01 (human); assay: UV peptide exchange ELISA
T1 construct: monomers captured on streptavidin plates; also called MHC class I
measured.property: peptide exchange yield

Entry under review: "ILFEDIFDV" . Reported peptide exchange yield?
50 to 75%

Entry under review: "SLWPSPEQL" . Reported peptide exchange yield?
20 to 50%

Quick one: peptide exchange yield of "FLLEDDIHVS" ?
50 to 75%

Fill in the blank: the reported peptide exchange yield of "FIDEAYVEV" is ____.
20 to 50%

Quick check: peptide exchange yield of "ALLGQTFSL" ?
50 to 75%

Sample "RLQETLSAA" — what was its peptide exchange yield?
50 to 75%

Can you share its peptide exchange yield? I mean this binder: "LLAPTPYIIGV"
50 to 75%

What value of measured peptide exchange yield is listed for "FLSSLTETI" ?
50 to 75%

Value lookup for peptide exchange yield; key = "SMHDLVLQV"
50 to 75%

Consider the binder shown here: "RLWEEGEELEL" What is its recorded peptide exchange yield?
50 to 75%

Requested read-out: peptide exchange yield. Entry: "FMIDASVHPTL"
50 to 75%

Fill in the blank: the reported peptide exchange yield of "SLNDEVPEV" is ____.
20 to 50%

Need peptide exchange yield, item "ALNDCIYSV"
50 to 75%

Entry under review: "ALLSMTFPL" . Reported peptide exchange yield?
≥ 75%

# lookup: peptide exchange yield of "YLLNDASLISV"
50 to 75%

Requested read-out: peptide exchange yield. Entry: "ALYEEGLLL"
20 to 50%
